Assay: Toxicity liver stage against HepG2, at 10uM
Format: cell-based
Design: test concentration 10 uM, cell line HepG2-A16-CD81EGFP
Conditions: human, HepG2-A16-CD81EGFP cells; read-out: INHIBITION
Measurement Type: cytotoxicity at 10 µM (%)
Give the number; % is assumed, so skip it.

# get_value(readout='cytotoxicity at 10 µM', item= COC(=O)N1CCCC(C(=O)N(C)C)C1 (stereo not drawn) ) -5.87

Now give it for `Cc1ccccc1Oc1ncccc1CNS(C)(=O)=O` too. -22.1

Alright, here's another compound for you.
# get_value(readout='cytotoxicity at 10 µM', item= `CC(C)Cc1cc(C(=O)NC(C)C)[nH]n1` ) 5.67

---

Assay: Toxicity liver stage against HepG2, at 10uM
Format: cell-based
Parameters: test concentration 10 uM, cell line HepG2-A16-CD81EGFP
Settings: human, HepG2-A16-CD81EGFP cells; read-out: INHIBITION
Item-by-item account of cytotoxicity at 10 µM
Give the number; % is assumed, so skip it.

# get_value(readout='cytotoxicity at 10 µM', item= `c1ccc(CNc2ncc(CN3CCCN4CCC[C@H]4C3)cn2)cc1` ) -9.53

Now give it for `Cn1nc(-c2ccc(F)cc2)cc1C(=O)NCCn1ccnc1` too. 3.68

Now give it for Cc1nc(C)n(CC2CCCN(CCC(=O)N3CCCCC3)C2)n1 (stereo not given) too. 3.9

Now give it for `CCS(=O)(=O)N1CCC2(CN(c3cccc(C)n3)C2)C1` too. 3.5

Now give it for `CCn1c(-c2ccccc2)nn(CC(=O)NCCc2ccc(C)o2)c1=O` too. -0.545

Now give it for `CN(Cc1cccc(CCN)c1)Cc1cccc2ncccc12` too. 7.82

Now give it for `Cc1cc(CN(C)Cc2ccccc2N2CCCCC2)n[nH]1` too. -2.98

Now give it for CCN(CC1CCOC1)C(=O)NCc1nnc2n1CCC2 (stereo not given) too. 13.6

Now give it for CC(Cn1ccnc1)NCc1csc2c1CCCC2 (stereo not given) too. -3.37

Now give it for `COc1ccc2cc(NC(=O)CCNc3nc(C)cc(C)n3)cnc2c1` too. -48.9

Now give it for CC(O)(CN1CCC2(CC1)OCCO2)c1cccc(C(F)(F)F)c1 (stereo not given) too. -9.21

Now give it for `CC(=O)c1ccc(OCC(=O)NS(=O)(=O)c2ccc(C)s2)cc1` too. -8.9

Now give it for `COc1ccc(OCc2nc(C(=O)NCCN3CCOCC3)co2)cc1` too. 1.87

Now give it for COc1ccccc1CNC(=O)N1CCCC(c2nncn2C)C1 (stereo not given) too. -6.51

Now give it for COc1ccc(C2=NOC(CO)C2)cc1 (stereo not given) too. 11.2

---

Test: Toxicity liver stage against HepG2, at 10uM
Type: cell-based
Design: test concentration 10 uM, cell line HepG2-A16-CD81EGFP
Settings: human, HepG2-A16-CD81EGFP cells; read-out: INHIBITION
Measurement Type: cytotoxicity at 10 µM (%)
Give the number; % is assumed, so skip it.

The cases that follow already have their cytotoxicity at 10 µM on record.
# get_value(readout='cytotoxicity at 10 µM', item= CCC(CNC(=O)c1ccc(Br)o1)N1CCc2ccccc2C1 (centres undefined) ) -20.5

Now give it for COc1cc(F)cc2sc(NC(=O)COCC3CCCO3)nc12 (centres undefined) too. -5.07

Now give it for Cc1noc(C)c1CN1CC2(CCN(C(=O)c3ccoc3C)C2)CC1=O (centres undefined) too. 7.78

Alright, here's another compound for you.
# get_value(readout='cytotoxicity at 10 µM', item= `O=C(NCCCn1cccn1)C1(c2ccccc2)CCOCC1` ) 5.78

---

Item-by-item account of cytotoxicity at 10 µM
Test: Toxicity liver stage against HepG2, at 10uM
Type: cell-based
Parameters: test concentration 10 uM, cell line HepG2-A16-CD81EGFP
Settings: human, HepG2-A16-CD81EGFP cells; read-out: INHIBITION
Give the number; % is assumed, so skip it.

# get_value(readout='cytotoxicity at 10 µM', item= `O=C(NCCCn1nc2ccccn2c1=O)Nc1ccc(F)cc1F` ) -7.43

Now give it for `Cc1nc(NC(=O)c2ccc(-n3ncc(C#N)c3N)cc2)sc1C` too. 7.13

Alright, here's another compound for you.
# get_value(readout='cytotoxicity at 10 µM', item= `O=C(CCc1nccs1)N1CCN(c2ccc(Br)cn2)CC1` ) -2.65

---

Assay: Toxicity liver stage against HepG2, at 10uM
Format: cell-based
Parameters: test concentration 10 uM, cell line HepG2-A16-CD81EGFP
Settings: human, HepG2-A16-CD81EGFP cells; read-out: INHIBITION
Item-by-item account of cytotoxicity at 10 µM
Give the number; % is assumed, so skip it.

The cases that follow already have their cytotoxicity at 10 µM on record.
# get_value(readout='cytotoxicity at 10 µM', item= COc1ccc(C)cc1C(C(=O)O)N1CCN(Cc2ccccn2)CC1 (stereo not drawn) ) 4.4

Now give it for `Cc1ncc2c(n1)CN(CC(=O)Nc1c(C)nn(C)c1C)CC2` too. -11.1

Now give it for COc1cccc2c1OCC(NC(=O)NC1CCN(C3CC3)CC1)C2 (stereo not drawn) too. -10.7

***
# get_value(readout='cytotoxicity at 10 µM', item= O=C(O)C(c1ccc2[nH]ccc2c1)N1CCN(c2cnccn2)CC1 (stereo not drawn) ) 2.56

Now give it for `Cc1cc(CCC(=O)NCc2ncc[nH]2)ccc1Br` too. -18.1

Now give it for CCc1cc(CNC(=O)C2CCCN(C(=O)NCC(C)C)C2)[nH]n1 (stereo not drawn) too. 7.23

Now give it for CC1(C(=O)N2CCOCC2)CN(Cc2ccccn2)CCO1 (stereo not drawn) too. 2.86

---

Experiment: Toxicity liver stage against HepG2, at 10uM
Type: cell-based
Parameters: test concentration 10 uM, cell line HepG2-A16-CD81EGFP
Settings: human, HepG2-A16-CD81EGFP cells; read-out: INHIBITION
Item-by-item account of cytotoxicity at 10 µM
Number first, unit second.

# get_value(readout='cytotoxicity at 10 µM', item= `Cc1nn(CC(=O)N2CCN(c3ccc(F)cc3)CC2)c(C)c1Cl` ) 6.87%

Now give it for `COc1cc(C(=O)NS(=O)(=O)c2cncc(Br)c2)ccc1C` too. -2.45%

Now give it for CN(CC(=O)NC1(C#N)CCCC1)C1CCCN(c2cccnn2)C1 (stereo not drawn) too. -9.75%

Now give it for `CCOC(=O)[C@]12CCCN(Cc3cccs3)C[C@H]1CN(C(C)=O)C2` too. 4.13%

Now give it for OC(COCc1ccc2c(c1)OCO2)CN1CC(n2cccn2)C1 (stereo not drawn) too. -5.89%

Now give it for `CC(C)Sc1ncccc1C(=O)NCc1ccc(O)cc1` too. -3.29%

***
# get_value(readout='cytotoxicity at 10 µM', item= `CCN1CCN(C(=O)c2cccn2Cc2ccccc2)CC1` ) -12.3%

Now give it for `CS(=O)(=O)c1ccc2c(c1)N(C(=O)c1cccc(F)c1)CCC2` too. 8.05%

---

Assay: Toxicity liver stage against HepG2, at 10uM
Assay type: cell-based
Set-up: test concentration 10 uM, cell line HepG2-A16-CD81EGFP
Conditions: human, HepG2-A16-CD81EGFP cells; read-out: INHIBITION
Item-by-item account of cytotoxicity at 10 µM
Number first, unit second.

The cases that follow already have their cytotoxicity at 10 µM on record.
# get_value(readout='cytotoxicity at 10 µM', item= `CCCc1nc(NCCCOCC)c2c(n1)c(C)nn2CC` ) 21.6%

Now give it for `N#Cc1cccc(CN2CCN(C(=O)C3CCC3)[C@@H]3CS(=O)(=O)C[C@@H]32)c1` too. -3.49%

Now give it for CC(C1CCN(Cc2ccc(N(C)C)nc2)CC1)N1CCOCC1 (stereo unspecified) too. 6.06%

Now give it for `CN(CC(N)=O)CC1(c2ccc(Br)cc2)CC1` too. 2.17%

Now give it for Cc1cn2c(n1)CCC(NC(=O)c1cc(Br)cn1C)C2 (stereo unspecified) too. 3.18%

Alright, here's another compound for you.
# get_value(readout='cytotoxicity at 10 µM', item= `COc1ccccc1C(=O)N1CCN(CCc2scnc2C)CC1` ) 1.79%

---

Item-by-item account of cytotoxicity at 10 µM
Test: Toxicity liver stage against HepG2, at 10uM
Format: cell-based
Design: test concentration 10 uM, cell line HepG2-A16-CD81EGFP
Details: human, HepG2-A16-CD81EGFP cells; read-out: INHIBITION
Give the number; % is assumed, so skip it.

The cases that follow already have their cytotoxicity at 10 µM on record.
# get_value(readout='cytotoxicity at 10 µM', item= `CC(C)NC(=O)N1CCN(CC2CC2)c2ncccc2C1` ) -108

Now give it for `O=C(NC[C@H]1C[C@@H]2CCN1C[C@@H]2CN1CCCC1)c1ccco1` too. -3.84

Now give it for COc1ccc2oc(C(C)NC(=O)NCc3noc(C)n3)c(C)c2c1 (stereo unspecified) too. 5.08

***
# get_value(readout='cytotoxicity at 10 µM', item= CC(C)Oc1ccccc1CNC(=O)N(C)C(C)CS(C)(=O)=O (stereo unspecified) ) -48.4

Now give it for `Cc1nc(COc2ccc(N(C)S(C)(=O)=O)cc2)sc1C` too. -2.75

Now give it for Cc1cc(C)nc(CN(C)C(=O)C(c2cccnc2)N2CCCC2)c1 (stereo unspecified) too. -45.4

Hey, just so you know, these numbers are from ChEMBL document CHEMBL4513216.
